Data credit: paper PMC4099323

biological target: Catalase (from bovine liver) (Bos taurus, UniProt P00432); construct: Catalase (from bovine liver); purchased Sigma-Aldrich, St. Louis, MO, USA; host or cells: bovine liver; test: Fluorimetric titration: quenching of catalase fluorescence by catechins; format: binding; settings: from the fluorimetric binding constant; read-out: K d to catalase
Sequence (P00432 2-527 limits assumed): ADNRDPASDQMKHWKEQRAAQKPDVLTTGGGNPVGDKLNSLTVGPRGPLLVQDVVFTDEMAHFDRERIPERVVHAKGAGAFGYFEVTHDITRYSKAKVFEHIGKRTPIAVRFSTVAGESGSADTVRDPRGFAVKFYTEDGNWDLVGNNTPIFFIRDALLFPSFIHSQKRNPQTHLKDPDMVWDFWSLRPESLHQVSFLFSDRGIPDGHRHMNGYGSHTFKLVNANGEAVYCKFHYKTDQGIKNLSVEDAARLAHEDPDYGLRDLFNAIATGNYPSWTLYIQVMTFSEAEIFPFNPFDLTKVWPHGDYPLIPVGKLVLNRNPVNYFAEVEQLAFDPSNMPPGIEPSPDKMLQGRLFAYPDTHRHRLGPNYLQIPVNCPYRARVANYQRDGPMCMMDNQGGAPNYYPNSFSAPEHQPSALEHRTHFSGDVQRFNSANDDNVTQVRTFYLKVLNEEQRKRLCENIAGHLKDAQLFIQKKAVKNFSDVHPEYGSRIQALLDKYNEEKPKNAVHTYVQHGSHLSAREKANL
Quantity: Kd (nM)

1) O=C(O[C@@H]1Cc2c(O)cc(O)cc2O[C@@H]1c1cc(O)c(O)c(O)c1)c1cc(O)c(O)c(O)c1 [EGCG, (−)-epigallocatechin gallate]: 440

---

molecular target: Catalase (from bovine liver) (Bos taurus); construct: Catalase (from bovine liver); purchased Sigma-Aldrich, St. Louis, MO, USA; host or cells: bovine liver; assay: Isothermal titration calorimetry of catechins binding to catalase; settings: ITC, 25°C; calculated from the average values of ΔH
Quantity: ΔG

1. O=C(OC1Cc2c(O)cc(O)cc2OC1c1ccc(O)c(O)c1)c1cc(O)c(O)c(O)c1 (single isomer, unassigned; (-)) [ECG, (−)-epicatechin gallate]: -7.8 kcal/mol
2. Oc1cc(O)c2c(c1)O[C@H](c1ccc(O)c(O)c1)[C@H](O)C2 [EC, (−)-epicatechin]: -7.17 kcal/mol
3. Oc1cc(O)c2c(c1)OC(c1cc(O)c(O)c(O)c1)C(O)C2 (single isomer, unassigned; (-)) [EGC, (−)-epigallocatechin]: -7.1 kcal/mol
4. O=C(O[C@@H]1Cc2c(O)cc(O)cc2O[C@@H]1c1cc(O)c(O)c(O)c1)c1cc(O)c(O)c(O)c1 [EGCG, (−)-epigallocatechin gallate]: -7.95 kcal/mol
